testSystem: PDE4
assay: Inhibition of PDE4, radioenzymatic phosphodiesterase assay
Format: biochemical, bovine
conditions: Table 1, formula (III); 1 μM cyclic AMP
pIC50: −log10 of the molar value.
Entry flag: met if pIC50 reaches 6; not met if it does not.

molecule=COc1cc2c(cc1OC)C(c1cc3ccccc3s1)=NN(C)C(=O)C2 testsystem=PDE4 class=met
molecule=COc1cc2c(cc1OC)C(c1ccc(-c3cccc(C)c3)cc1)=NN(C)C(=O)C2 testsystem=PDE4 class="not met"
molecule=COc1cc2c(cc1OC)C(c1ccc(-c3ccccc3OC)cc1)=NN(C)C(=O)C2 testsystem=PDE4 class="not met"
molecule=COc1cc2c(cc1OC)C(c1ccc(-c3cccc(NC(C)=O)c3)cc1)=NN(C)C(=O)C2 testsystem=PDE4 class="not met"
molecule=COc1cc2c(cc1OC)C(c1ccc(I)cc1)=NN(C)C(=O)C2 testsystem=PDE4 class="not met"
molecule=COc1ccc(-c2ccc(C3=NN(C)C(=O)Cc4cc(OC)c(OC)cc43)cc2)cc1 testsystem=PDE4 class="not met"

Please indicate if the recorded pIC50 for COc1cc2c(cc1OC)C(c1ccc(-c3cccc(C(F)(F)F)c3)cc1)=NN(C)C(=O)C2 meets or exceeds 6.
not met

Please indicate if the recorded pIC50 for CCOc1cc2c(cc1OCC)C(CC)C(=O)N(C)N=C2c1cc2ccccc2s1 (stereo not drawn) meets or exceeds 6.
met

Please indicate if the recorded pIC50 for COc1cc2c(cc1OC)C(c1ccc(-c3ccc(C(C)=O)cc3)cc1)=NN(C)C(=O)C2 meets or exceeds 6.
not met
